Assignment: determine reported pIC50 for the given molecules.
Tested on: BaF3
methodDescription: Antiproliferative activity against mouse BaF3 cells overexpressing ALK assessed as inhibition of cell proliferation measured by CCK8 assay
Assay type: functional, cell-based
Kindly note that pIC50 refers to -log10 of the concentration in mol/L and answer with the value alone.

Q: Jot down pIC50 (BaF3) of CC[S+]([O-])c1cc(F)ccc1Nc1nc(Nc2ccc(N3CCN(C(C)=O)CC3)cc2OC)ncc1Cl (centres undefined) .
Ans: 7.07

Q: Jot down pIC50 (BaF3) of CCC(=O)Nc1cc(Nc2ncc(Cl)c(Nc3ccc(F)cc3[S+]([O-])CC)n2)c(OC)cc1N1CCN(C)CC1 (centres undefined) .
Ans: 8.09

Q: Jot down pIC50 (BaF3) of CCC(=O)Nc1cc(Nc2ncc(Cl)c(Nc3ccccc3[S+]([O-])CC)n2)c(OC)cc1N(C)CCN(C)C (centres undefined) .
Ans: 7.45

Q: Jot down pIC50 (BaF3) of CC[S+]([O-])c1ccccc1Nc1nc(Nc2cc(N)c(N(C)CCN(C)C)cc2OC)ncc1Cl (centres undefined) .
Ans: 7.12

* * *

Assignment: determine reported pIC50 for the given compounds.
System: BaF3
methodDescription: Antiproliferative activity against mouse BaF3 cells overexpressing ALK assessed as inhibition of cell proliferation measured by CCK8 assay
Type: functional, cell-based
Kindly note that pIC50 refers to -log10 of the concentration in mol/L and answer with the value alone.

Q: Specify reported pIC50 for the compound shown: CC[S+]([O-])c1cc(F)ccc1Nc1nc(Nc2ccc(N3CCC(N(C)C)CC3)cc2OC)ncc1Cl (stereo not drawn)
Ans: 7.10

Q: Specify reported pIC50 for the compound shown: CC[S+]([O-])c1cc(F)ccc1Nc1nc(Nc2ccc(N(C)CCN(C)C)cc2OC)ncc1Cl (stereo not drawn)
Ans: 7.46

Q: Specify reported pIC50 for the compound shown: CC[S+]([O-])c1cc(F)ccc1Nc1nc(Nc2ccc(N(C)C3CCN(C)CC3)cc2OC)ncc1Cl (stereo not drawn)
Ans: 7.09

Q: Specify reported pIC50 for the compound shown: CCC(=O)Nc1cc(Nc2ncc(Cl)c(Nc3ccc(F)cc3[S+]([O-])CC)n2)c(OC)cc1N(C)CCN(C)C (stereo not drawn)
Ans: 7.33

Q: Specify reported pIC50 for the compound shown: CC[S+]([O-])c1cc(Cl)ccc1Nc1nc(Nc2ccc(N3CCN(C)CC3)cc2OC)ncc1Cl (stereo not drawn)
Ans: 6.89

Q: Specify reported pIC50 for the compound shown: CC[S+]([O-])c1cc(F)ccc1Nc1nc(Nc2ccc(N3CCCN(C)CC3)cc2OC)ncc1Cl (stereo not drawn)
Ans: 7.57

Q: Specify reported pIC50 for the compound shown: COc1cc(N2CCC(N3CCN(C)CC3)CC2)ccc1Nc1ncc(Cl)c(Nc2ccccc2P(C)(C)=O)n1 [BRIGATINIB]
Ans: 8.07

Q: Specify reported pIC50 for the compound shown: CCSc1ccccc1Nc1nc(Nc2ccc(N3CCN(C)CC3)cc2OC)ncc1Cl
Ans: 7.11

* * *

Tested on: BaF3
methodDescription: Antiproliferative activity against mouse BaF3 cells overexpressing ALK assessed as inhibition of cell proliferation measured by CCK8 assay
Assay type: functional, cell-based
measuredEndpoint: IC50

Q: Specify reported IC50 for the compound shown: CC[S+]([O-])c1ccccc1Nc1nc(Nc2ccc(N3CCN(C)CC3)cc2OC)ncc1Cl (stereo unspecified)
Ans: 13.1 nM

Q: Specify reported IC50 for the compound shown: CC[S+]([O-])c1ccccc1Nc1nc(Nc2ccc(N(C)CCN(C)C)cc2OC)ncc1Cl (stereo unspecified)
Ans: 26.3 nM

Q: Specify reported IC50 for the compound shown: COc1cc(N2CCN(C)CC2)ccc1Nc1ncc(Cl)c(Nc2ccccc2[S+]([O-])C(C)C)n1 (stereo unspecified)
Ans: 32.3 nM

Q: Specify reported IC50 for the compound shown: CC[S+]([O-])c1cc(F)ccc1Nc1nc(Nc2ccc(N3CCN(C)CC3)cc2OC)ncc1Cl (stereo unspecified)
Ans: 48.9 nM

Q: Specify reported IC50 for the compound shown: Cc1cc(Nc2ncc(Cl)c(Nc3ccccc3S(=O)(=O)C(C)C)n2)c(OC(C)C)cc1C1CCNCC1 [CERITINIB]
Ans: 7.11 nM

Q: Specify reported IC50 for the compound shown: CC[S+]([O-])c1ccccc1Nc1nc(Nc2ccc(N3CCCN(C)CC3)cc2OC)ncc1Cl (stereo unspecified)
Ans: 23.5 nM

* * *

Test system: NCI-H2228
methodDescription: Antiproliferative activity against human NCI-H2228 cells assessed as inhibition of cell proliferation measured by CCK8 assay
Type: functional, cell-based
measuredEndpoint: pIC50
Kindly note that pIC50 refers to -log10 of the concentration in mol/L and answer with the value alone.

Q: Jot down pIC50 (NCI-H2228) of CC[S+]([O-])c1ccccc1Nc1nc(Nc2cc(N)c(N(C)CCN(C)C)cc2OC)ncc1Cl (stereo not given) .
Ans: 5.58

Q: Jot down pIC50 (NCI-H2228) of CC[S+]([O-])c1cc(F)ccc1Nc1nc(Nc2ccc(N(C)C3CCN(C)CC3)cc2OC)ncc1Cl (stereo not given) .
Ans: 5.84

Q: Jot down pIC50 (NCI-H2228) of CCSc1ccccc1Nc1nc(Nc2ccc(N3CCN(C)CC3)cc2OC)ncc1Cl .
Ans: 6.01

Q: Jot down pIC50 (NCI-H2228) of CC[S+]([O-])c1ccccc1Nc1nc(Nc2ccc(N(C)CCN(C)C)cc2OC)ncc1Cl (stereo not given) .
Ans: 7.16

Q: Jot down pIC50 (NCI-H2228) of CC[S+]([O-])c1cc(F)ccc1Nc1nc(Nc2ccc(N3CCC(N(C)C)CC3)cc2OC)ncc1Cl (stereo not given) .
Ans: 6.47

* * *

Assignment: determine reported log10(IC50) for the given compounds.
System: NCI-H2228
methodDescription: Antiproliferative activity against human NCI-H2228 cells assessed as inhibition of cell proliferation measured by CCK8 assay
Assay type: functional, cell-based
Lab note - IC50 converted to log10 from values in nM.

Q: Specify reported log10(IC50) for the compound shown: CC[S+]([O-])c1cc(Cl)ccc1Nc1nc(Nc2ccc(N3CCN(C)CC3)cc2OC)ncc1Cl (stereo not drawn)
Ans: 2.13

Q: Specify reported log10(IC50) for the compound shown: CC[S+]([O-])c1cc(F)ccc1Nc1nc(Nc2ccc(N3CCN(C(C)=O)CC3)cc2OC)ncc1Cl (stereo not drawn)
Ans: 2.85

Q: Specify reported log10(IC50) for the compound shown: CC[S+]([O-])c1cc(F)ccc1Nc1nc(Nc2ccc(N3CCCN(C)CC3)cc2OC)ncc1Cl (stereo not drawn)
Ans: 1.81

Q: Specify reported log10(IC50) for the compound shown: Cc1cc(Nc2ncc(Cl)c(Nc3ccccc3S(=O)(=O)C(C)C)n2)c(OC(C)C)cc1C1CCNCC1 [CERITINIB]
Ans: 1.34

Q: Specify reported log10(IC50) for the compound shown: COc1cc(N2CCC(N3CCN(C)CC3)CC2)ccc1Nc1ncc(Cl)c(Nc2ccccc2P(C)(C)=O)n1 [BRIGATINIB]
Ans: 1.49

Q: Specify reported log10(IC50) for the compound shown: CC[S+]([O-])c1cc(F)ccc1Nc1nc(Nc2ccc(N3CCN(C)CC3)cc2OC)ncc1Cl (stereo not drawn)
Ans: 2.02

Q: Specify reported log10(IC50) for the compound shown: CC[S+]([O-])c1ccccc1Nc1nc(Nc2ccc(N3CCCN(C)CC3)cc2OC)ncc1Cl (stereo not drawn)
Ans: 1.71

Q: Specify reported log10(IC50) for the compound shown: CCC(=O)Nc1cc(Nc2ncc(Cl)c(Nc3ccccc3[S+]([O-])CC)n2)c(OC)cc1N(C)CCN(C)C (stereo not drawn)
Ans: 1.74

* * *

Test system: NCI-H2228
methodDescription: Antiproliferative activity against human NCI-H2228 cells assessed as inhibition of cell proliferation measured by CCK8 assay
Format: functional, cell-based
Assignment: determine reported pIC50 for the given compounds.
Kindly note that pIC50 refers to -log10 of the concentration in mol/L and answer with the value alone.

Q: Jot down pIC50 (NCI-H2228) of COc1cc(N2CCN(C)CC2)ccc1Nc1ncc(Cl)c(Nc2ccccc2[S+]([O-])C(C)C)n1 (stereo not given) .
Ans: 7.08

Q: Jot down pIC50 (NCI-H2228) of CC[S+]([O-])c1ccccc1Nc1nc(Nc2ccc(N3CCN(C)CC3)cc2OC)ncc1Cl (stereo not given) .
Ans: 7.45

Q: Jot down pIC50 (NCI-H2228) of CC[S+]([O-])c1cc(F)ccc1Nc1nc(Nc2ccc(N(C)CCN(C)C)cc2OC)ncc1Cl (stereo not given) .
Ans: 7.07

Q: Jot down pIC50 (NCI-H2228) of CCC(=O)Nc1cc(Nc2ncc(Cl)c(Nc3ccc(F)cc3[S+]([O-])CC)n2)c(OC)cc1N(C)CCN(C)C (stereo not given) .
Ans: 7.32

Q: Jot down pIC50 (NCI-H2228) of CCC(=O)Nc1cc(Nc2ncc(Cl)c(Nc3ccc(F)cc3[S+]([O-])CC)n2)c(OC)cc1N1CCN(C)CC1 (stereo not given) .
Ans: 7.61
